This section lists IC50 readings for Acetylcholinesterase (Homo sapiens, UniProt P22303).
# number then unit; no other words

// worked examples, IC50 included
molecule: C=CCC1(O)OCc2c(OC)c(OC)cc3ccnc1c23 (centres undefined)
result: 174 µM
--
molecule: COc1cc2ccnc3c2c(c1OC)COC3=O
result: 19.6 µM
--
molecule: COc1cc2ccnc3c2c(c1OC)COC3(CCCO)OC (centres undefined)
result: 137 µM

Let us examine a further case.
State its IC50 on Acetylcholinesterase (Homo sapiens, UniProt P22303): COc1cc2ccnc3c2c(c1OC)COC3(O)CC(O)CO (centres undefined)
Sequence (P22303 whole entry): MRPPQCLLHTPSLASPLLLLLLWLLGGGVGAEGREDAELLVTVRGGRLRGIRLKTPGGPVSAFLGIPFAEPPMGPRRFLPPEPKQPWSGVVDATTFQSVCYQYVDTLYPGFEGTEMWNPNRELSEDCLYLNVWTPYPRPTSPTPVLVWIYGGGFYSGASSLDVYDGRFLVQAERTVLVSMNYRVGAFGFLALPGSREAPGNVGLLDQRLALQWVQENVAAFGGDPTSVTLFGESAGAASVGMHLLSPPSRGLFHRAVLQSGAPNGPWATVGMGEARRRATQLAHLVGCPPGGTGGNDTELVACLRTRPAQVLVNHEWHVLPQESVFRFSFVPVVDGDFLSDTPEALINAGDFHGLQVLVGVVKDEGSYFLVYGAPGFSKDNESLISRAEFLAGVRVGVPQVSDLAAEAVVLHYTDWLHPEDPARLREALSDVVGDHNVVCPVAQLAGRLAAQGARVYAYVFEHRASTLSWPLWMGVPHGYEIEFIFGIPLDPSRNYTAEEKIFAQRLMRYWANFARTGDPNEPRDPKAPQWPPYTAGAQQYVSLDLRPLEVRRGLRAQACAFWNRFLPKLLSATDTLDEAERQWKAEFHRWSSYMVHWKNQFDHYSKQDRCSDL
109 µM

Ref: ChEMBL document CHEMBL1145264
